Form field: growth inhibition (one value per entry).
- assay.text: NCI Yeast Anticancer Drug Screen. Data for the mec2-1 strain (AID 157)
- measurement.context: S. cerevisiae mec2-1 strain, at 5.0 µM (retest, dose inferred, filed as 0.5), stronger effect = higher value
About 79,000 compounds went through this panel and 15% of them were active in at least one assay; those are over-represented in the sample as a whole.
measured.quantity: growth inhibition (%)

> print(dat)
                                   compound  measured.quantity  reading
1                         S=c1sc2c(s1)SCCS2  growth inhibition      -11
2  CCCCNC1CCC2(SCCS2)c2[nH]c3ccccc3c21 (configuration not stated)  growth inhibition        4
3  Cc1nc(-c2cc3cc([N+](=O)[O-])ccc3oc2=O)cs1  growth inhibition       18
4  O=C(O)C1CC(c2ccccc2)=NN1c1ccccc1 (configuration not stated)  growth inhibition       27
5  CNC(=O)OCc1c(COC(=O)NC)c(-c2ccc(Cl)c(Cl)c2)n2c1SCC2  growth inhibition        0
6  COc1ccc(C(=O)c2ccccc2C(=O)c2ccccc2OC)cc1  growth inhibition      -10
7              CN(C)c1nc(=Nc2cccc(Cl)c2)ss1  growth inhibition       56

---

- assay.text: NCI Yeast Anticancer Drug Screen. Data for the sgs1 strain (AID 173);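 also: 0% = growth of vehicle-only control cultures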
- measurement.context: S. cerevisiae sgs1 mutant, at 3.7 µM, stronger effect = higher value
This is part of a sample that, as a whole, favours compounds with a hit. Of some 79,000 tested, about 15% had one in any assay.
Please mark Yes if the recorded growth inhibition is equal to or greater than 10%, and No if it falls below.

> print(dat)
                                    molecule  assigned.category
 1  O=C(NCCCNCCN1C(=O)c2cccc3cc([N+](=O)[O-])cc(c23)C1=O)c1cc(-c2ccccc2)nc2ccccc12                 No
 2  CCOC(=O)CC1(C(=O)OCC)c2[nH]c3ccccc3c2CCN1Cc1ccccc1 (configuration not stated)                 No
 3  CC1(C)CC(=O)C(/C=N/c2nc(-c3ccccc3)cs2)=C(O)C1                 No
 4                COc1cc(O)c(O)c(C(C)(C)C)c1                 No
 5  CCOC(=O)c1[nH]cc(C)c1-c1cccn1-c1ccc(Cl)cc1[N+](=O)[O-]                Yes
 6  CN(C)c1ccc(C2CC(C)(O)Oc3cc4c(cc32)OCO4)cc1 (configuration not stated)                 No
 7            O=C(O)c1ccc(N2C(=O)C=CC2=O)cc1                 No
 8  CCCCCCCCCCCC1N=C(N)NC(CCCO)=C1C(=O)OC (configuration not stated)                Yes
 9                     Cc1ccc(Sc2ccccc2N)cc1                 No
10  CNCCCNc1c2ccccc2nc2cccc([N+](=O)[O-])c12                Yes
11      O=P(NC1CCCCC1)(OCc1ccccc1)OCc1ccccc1                 No
12  O=C(Nc1ccc(Cl)cc1)Nc1nnc2nc(C(C(=O)c3cccc([N+](=O)[O-])c3Cl)c3nc4nnc(NC(=O)Nc5ccc(Cl)cc5)n4[nH]c3=O)c(=O)[nH]n12                 No
13  CCn1c(O)c(C=Nc2ccccc2)s/c1=N/Nc1nc(-c2ccccc2)cs1                 No
14  CCCCN(CCCC)CCC(O)c1cc2c(Cl)cc(Cl)cc2c2cc(C(F)(F)F)ccc12 (configuration not stated)                Yes
15         Cc1ccc(S/C(=C\C(=O)O)c2ccccc2)cc1                 No
16  COc1ccc(NC(=O)CC2SC(=Nc3ccccc3C)NC2=O)c([N+](=O)[O-])c1 (configuration not stated)                 No
17  O=C(O)c1ccccc1/C=N/N=C1c2ccccc2-c2ccccc21                 No
18                    CCc1cc(O)c(Cl)c(C)c1Cl                 No
19               S=c1[nH]c2cc3ccccc3cc2[nH]1                 No
20  CCC(=O)c1cc(C(=O)C(=S)SC)cc(C(=O)C(=S)SC)c1                Yes
21  CCOC1Oc2ccccc2-c2nc(N)ncc21 (configuration not stated)                Yes

Sourced from PubChem BioAssay (NCI)
